# assay-system: LRRK2 G2019S mutant kinase (Homo sapiens, UniProt Q5S007, G2019S)
# Construct: GST
# Sequence (Q5S007 whole entry G2019S): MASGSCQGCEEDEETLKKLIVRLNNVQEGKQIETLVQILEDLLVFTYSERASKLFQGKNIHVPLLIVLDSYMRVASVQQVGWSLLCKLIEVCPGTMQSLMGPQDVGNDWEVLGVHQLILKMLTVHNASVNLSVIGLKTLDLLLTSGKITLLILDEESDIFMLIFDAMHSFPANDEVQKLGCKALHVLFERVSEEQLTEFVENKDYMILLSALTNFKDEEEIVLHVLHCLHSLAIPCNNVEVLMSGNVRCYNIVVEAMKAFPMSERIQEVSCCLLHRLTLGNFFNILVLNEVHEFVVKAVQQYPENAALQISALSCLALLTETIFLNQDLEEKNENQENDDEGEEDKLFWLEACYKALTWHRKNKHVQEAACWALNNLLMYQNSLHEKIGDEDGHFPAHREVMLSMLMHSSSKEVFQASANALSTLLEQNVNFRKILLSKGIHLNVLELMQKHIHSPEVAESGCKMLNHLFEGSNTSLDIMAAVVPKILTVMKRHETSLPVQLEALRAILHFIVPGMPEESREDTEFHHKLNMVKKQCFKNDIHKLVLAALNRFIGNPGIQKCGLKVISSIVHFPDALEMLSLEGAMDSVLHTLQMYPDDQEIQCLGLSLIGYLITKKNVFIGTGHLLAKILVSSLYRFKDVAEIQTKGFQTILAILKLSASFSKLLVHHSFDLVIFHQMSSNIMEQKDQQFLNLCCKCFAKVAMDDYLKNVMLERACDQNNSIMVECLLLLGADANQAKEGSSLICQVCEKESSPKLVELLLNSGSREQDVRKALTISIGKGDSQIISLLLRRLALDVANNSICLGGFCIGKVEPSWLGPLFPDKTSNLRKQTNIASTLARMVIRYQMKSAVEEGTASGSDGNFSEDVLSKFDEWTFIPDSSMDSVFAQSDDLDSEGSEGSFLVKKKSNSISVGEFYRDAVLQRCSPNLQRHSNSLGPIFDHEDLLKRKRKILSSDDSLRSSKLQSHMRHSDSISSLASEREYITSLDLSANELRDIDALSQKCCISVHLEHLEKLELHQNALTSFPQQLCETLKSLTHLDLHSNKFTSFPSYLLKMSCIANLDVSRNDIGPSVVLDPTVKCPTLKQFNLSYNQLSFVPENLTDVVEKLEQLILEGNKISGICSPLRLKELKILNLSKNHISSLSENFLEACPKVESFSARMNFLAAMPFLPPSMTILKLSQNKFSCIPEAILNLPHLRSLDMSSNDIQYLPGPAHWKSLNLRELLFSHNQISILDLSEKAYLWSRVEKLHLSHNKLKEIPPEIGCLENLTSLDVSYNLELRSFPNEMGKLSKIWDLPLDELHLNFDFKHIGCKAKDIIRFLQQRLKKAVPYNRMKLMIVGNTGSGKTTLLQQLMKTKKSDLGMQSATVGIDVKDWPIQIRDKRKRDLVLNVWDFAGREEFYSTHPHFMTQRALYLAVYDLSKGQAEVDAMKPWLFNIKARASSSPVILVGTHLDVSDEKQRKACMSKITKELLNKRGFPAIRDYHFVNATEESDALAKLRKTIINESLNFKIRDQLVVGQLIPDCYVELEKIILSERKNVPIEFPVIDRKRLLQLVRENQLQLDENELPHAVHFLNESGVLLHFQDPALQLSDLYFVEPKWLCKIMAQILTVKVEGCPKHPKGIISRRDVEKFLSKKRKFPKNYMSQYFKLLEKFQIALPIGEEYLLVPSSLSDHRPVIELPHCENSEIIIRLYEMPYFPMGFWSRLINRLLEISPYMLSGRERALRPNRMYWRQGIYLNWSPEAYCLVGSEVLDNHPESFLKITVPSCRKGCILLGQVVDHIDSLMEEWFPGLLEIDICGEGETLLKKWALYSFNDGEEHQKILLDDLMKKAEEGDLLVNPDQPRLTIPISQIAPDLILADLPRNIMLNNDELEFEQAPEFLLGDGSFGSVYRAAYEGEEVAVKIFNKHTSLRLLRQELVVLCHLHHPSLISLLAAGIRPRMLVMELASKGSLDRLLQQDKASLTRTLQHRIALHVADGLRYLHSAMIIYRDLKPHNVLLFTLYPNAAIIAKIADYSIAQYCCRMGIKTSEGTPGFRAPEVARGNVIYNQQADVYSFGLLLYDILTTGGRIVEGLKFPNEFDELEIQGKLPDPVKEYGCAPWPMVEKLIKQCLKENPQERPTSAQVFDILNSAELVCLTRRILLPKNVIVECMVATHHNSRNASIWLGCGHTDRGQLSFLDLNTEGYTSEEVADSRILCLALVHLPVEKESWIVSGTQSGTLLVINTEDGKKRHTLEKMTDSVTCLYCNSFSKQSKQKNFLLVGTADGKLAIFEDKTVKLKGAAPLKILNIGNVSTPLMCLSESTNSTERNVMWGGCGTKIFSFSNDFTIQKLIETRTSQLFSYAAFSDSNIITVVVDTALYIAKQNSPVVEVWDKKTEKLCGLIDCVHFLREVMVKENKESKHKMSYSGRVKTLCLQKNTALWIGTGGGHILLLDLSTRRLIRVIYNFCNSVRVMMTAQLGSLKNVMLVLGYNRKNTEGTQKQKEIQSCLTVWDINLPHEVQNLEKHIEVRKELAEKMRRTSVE
# run-description: LRRK2 G2019S LanthaScreen TR-FRET kinase assay
# particulars: LRRK2 G2019S GST-tagged protein, 100 μM ATP, LRRKtide substrate; read-out: IC50 (potency)
pIC50: −log10 of the molar value.
Entries and their pIC50
assay-endpoint: pIC50

>>> recorded_value("CC1(C)CC(=O)c2c(SCCO)sc(-c3cc[nH]n3)c2C1")
6.62
>>> recorded_value("CC1(C)CC(=O)c2c(SC3CCCC3)sc(-c3ccn(C(=O)c4ccc(Cl)nc4)n3)c2C1")
6.24
>>> recorded_value("CCC(C)Sc1sc(-c2cc[nH]n2)c2c1C(=O)CC(C)(C)C2 (stereo not drawn)")
6.74
>>> recorded_value("CC1(C)CC(=O)c2c(N3CCC3)sc(-c3cc[nH]n3)c2C1")
6.24
>>> recorded_value("CC1(C)CC(=O)c2c(NC3CC3)sc(-c3cc[nH]n3)c2C1")
6.68
>>> recorded_value("CC1(C)CC(=O)c2c(SC3CCCC3)sc(-c3ccn(C(=O)Nc4cccc(Cl)c4)n3)c2C1")
6.48
>>> recorded_value("CC1(C)CC(=O)c2c(S(C)(=O)=O)sc(-c3cc[nH]n3)c2C1")
5.55
>>> recorded_value("CC1(C)CC(=O)c2c(SC3CCCC3)sc(-c3ccn(C(=O)Nc4ccc(C#N)cc4)n3)c2C1")
7.07
>>> recorded_value("CC1(C)CC(=O)c2c(SCCCCCCN=[N+]=[N-])sc(-c3cc[nH]n3)c2C1")
6.31

----------
# assay-system: LRRK2 G2019S mutant kinase (Homo sapiens, UniProt Q5S007, G2019S)
# Construct: GST
# run-description: LRRK2 G2019S LanthaScreen TR-FRET kinase assay
# particulars: LRRK2 G2019S GST-tagged protein, 100 μM ATP, LRRKtide substrate; read-out: IC50 (potency)
pIC50: −log10 of the molar value.
Entries and their pIC50
assay-endpoint: pIC50

>>> recorded_value("CSc1sc(-c2cc[nH]n2)c2c1C(=O)CCC2")
6.72
>>> recorded_value("CC1(C)CC(=O)c2c(SC3CCCC3)sc(-c3ccn(C(=O)Cc4ccc(Cl)cc4)n3)c2C1")
6.22
>>> recorded_value("CN1CCN(c2sc(-c3cc[nH]n3)c3c2C(=O)CC(C)(C)C3)CC1")
5.40
>>> recorded_value("CC1(C)CC(=O)c2c(SC3CCCC3)sc(-c3ccn(C(=O)c4ccc(C#N)cc4)n3)c2C1")
6.59
>>> recorded_value("CCCNc1sc(-c2cc[nH]n2)c2c1C(=O)CC(C)(C)C2")
6.82
>>> recorded_value("CSc1sc(-c2cc[nH]n2)c2c1C(=O)C(C)CC2 (stereo not drawn)")
6.82
>>> recorded_value("CC1(C)CC(=O)c2c(OC3CCCC3)sc(-c3cc[nH]n3)c2C1")
6.52
>>> recorded_value("CC1(C)CC(=O)c2c(SCC3CC3)sc(-c3cc[nH]n3)c2C1")
6.89
>>> recorded_value("CN(C)CCSc1sc(-c2cc[nH]n2)c2c1C(=O)CC(C)(C)C2")
6.28
>>> recorded_value("CC1(C)CC(=O)c2c(OC3CCC3)sc(-c3cc[nH]n3)c2C1")
6.37
>>> recorded_value("CCCSc1sc(-c2cc[nH]n2)c2c1C(=O)CC(C)(C)C2")
6.80
>>> recorded_value("CC1(C)CC(=O)c2c(NC3CCCC3)sc(-c3ccn(C(=O)Nc4ccncc4)n3)c2C1")
6.14
>>> recorded_value("CC(C)Oc1sc(-c2cc[nH]n2)c2c1C(=O)CC(C)(C)C2")
6.10
>>> recorded_value("O=C1CCCc2c(-c3ccn(C(=O)Nc4ccc(Cl)cc4)n3)sc(SC3CCCC3)c21")
7.18
>>> recorded_value("CC(O)CSc1sc(-c2cc[nH]n2)c2c1C(=O)CC(C)(C)C2 (stereo not drawn)")
6.66
>>> recorded_value("CC1(C)CC(=O)c2c(Oc3ccccc3)sc(-c3cc[nH]n3)c2C1")
5.38
>>> recorded_value("CC1(C)CC(=O)c2c(N[C@H]3CC[C@H](O)CC3)sc(-c3cc[nH]n3)c2C1")
6.66
>>> recorded_value("CN(C)c1sc(-c2cc[nH]n2)c2c1C(=O)CC(C)(C)C2")
5.70
>>> recorded_value("CC1(C)CC(=O)c2c(NC3CCCC3)sc(-c3ccn(C(=O)Nc4ccc(Cl)cc4)n3)c2C1")
6.55
>>> recorded_value("CSc1sc(-c2cc(C)[nH]n2)c2c1C(=O)CC(C)(C)C2")
5.85
>>> recorded_value("CC(C)Sc1sc(-c2cc[nH]n2)c2c1C(=O)CC(C)(C)C2")
6.85
>>> recorded_value("CC1(C)CC(=O)c2c(NC3CCCC3)sc(-c3cc[nH]n3)c2C1")
7.01
>>> recorded_value("CC1(C)CC(=O)c2c(SC3CCCC3)sc(-c3ccn(C(=O)c4ccc(F)c(F)c4)n3)c2C1")
6.40
>>> recorded_value("CCC(C)CSc1sc(-c2cc[nH]n2)c2c1C(=O)CC(C)(C)C2 (stereo not drawn)")
6.66

Origin of measurements: patent US20130338106A1
